The origin of these recorded values is ChEMBL document CHEMBL4371002.

molecular target: Bacterial 70S ribosome
pIC50: −log10 of the molar value.
Mark rule not met for pIC50 values under 7, and rule met for everything at or above.

Exam item: decide whether the reported pIC50 for CC1=C\[C@@H](O)C[C@@H](O)Cc2nc(co2)C(=O)N2CCC[C@@H]2C(=O)O[C@H](C(C)C)[C@H](C)/C=C/C(=O)NC\C=C\1 is at least 7.
rule met

Hi team, for CC1=C\[C@@H](O)C[C@H](F)Cc2nc(co2)C(=O)N2CCC[C@@H]2C(=O)O[C@H](C(C)C)[C@H](C)/C=C/C(=O)NC\C=C\1 , is the recorded pIC50 at or above 7?
rule not met

Say whether CC1=C\[C@@H](O)C[C@H](O)Cc2nc(co2)C(=O)N2CCC[C@@H]2C(=O)O[C@H](C(C)C)[C@H](C)/C=C/C(=O)NC\C=C\1 shows pIC50 of 7 or more.
rule not met

hey, is pIC50 for this one >= 7? CC1=C\[C@@H](O)C[C@@H](F)Cc2nc(co2)C(=O)N2CCC[C@@H]2C(=O)O[C@H](C(C)C)[C@H](C)/C=C/C(=O)NC\C=C\1
rule met

---

The next entries give measured Ki for Procathepsin L (Homo sapiens, UniProt P07711).
Use nM as the unit, but write only the number.

Item N#Cc1nc(N2CCOCC2)nc(N(Cc2ccncc2)C2CCCC2)n1 was tested on Procathepsin L (Homo sapiens, UniProt P07711); the reported Ki is 158

For N#Cc1nc(N2CCOCC2)nc(N(Cc2cccc(F)c2)C2CCCC2)n1 on Procathepsin L (Homo sapiens, UniProt P07711), measured Ki was 200

I looked up N#Cc1nc(N2CCOCC2)nc(N(Cc2cnccn2)C2CCCC2)n1 and its Ki for Procathepsin L (Homo sapiens, UniProt P07711) was 158

Case N#Cc1nc(N2CCOCC2)nc(N(Cc2cccnc2)C2CCCC2)n1 , Procathepsin L (Homo sapiens, UniProt P07711), Ki recorded as 100

N#Cc1nc(N2CCOCC2)nc(N(Cc2cc(F)ccc2F)C2CCCC2)n1 tested on Procathepsin L (Homo sapiens, UniProt P07711) gave Ki: 251

Bench note, Procathepsin L (Homo sapiens, UniProt P07711): entry N#Cc1nc(N2CCOCC2)nc(N(Cc2ncccn2)C2CCCC2)n1 , its Ki = 398

---

Could you please report measured IC50 for the items listed next?
Report the figure in nM without appending any unit label.

Query Clc1ccc2[nH]cc(CCCCN3CCN(c4ccc5c(c4)OCCO5)CC3)c2c1 on 5-hydroxytryptamine receptor 1A (Homo sapiens, UniProt P08908); IC50 returned: 40

// returns IC50 for c1ccc2c(CCCCN3CCN(c4ccc5c(c4)OCCO5)CC3)c[nH]c2c1 with 5-hydroxytryptamine receptor 1A (Homo sapiens, UniProt P08908); value = 8

Summary: Fc1ccc2[nH]cc(CCCCN3CCN(c4ccc5c(c4)OCO5)CC3)c2c1 , 5-hydroxytryptamine receptor 1A (Homo sapiens, UniProt P08908), IC50 = 4

Tested on 5-hydroxytryptamine receptor 1A (Homo sapiens, UniProt P08908): N#Cc1ccc2[nH]cc(CCCCN3CCN(c4ccc5c(c4)OCCO5)CC3)c2c1 . Observed IC50: 1

The molecule N#Cc1ccc2[nH]cc(CCCCN3CCN(c4ccc5c(c4)OCO5)CC3)c2c1 on 5-hydroxytryptamine receptor 1A (Homo sapiens, UniProt P08908): IC50 was 0.7

Tested on 5-hydroxytryptamine receptor 1A (Homo sapiens, UniProt P08908), the item NC(=O)c1cc2cc(N3CCN(CCCCc4c[nH]c5ccc(F)cc45)CC3)ccc2o1 showed IC50 equal to 3

Noted IC50 for Fc1ccc2[nH]cc(CCCCN3CCN(c4ccc5c(c4)OCCO5)CC3)c2c1 , tested on 5-hydroxytryptamine receptor 1A (Homo sapiens, UniProt P08908): 5
